# reported log p; entries follow
experiment: log P by HPLC on reversed-phase column (C18), EEC directive 79/831 Annex V.A8; type: physicochemical; conditions: HPLC, acidic range pH 2.7, 43° C.

Completed entries (count: 8):
1. C#CCn1c(C(=O)NC(c2cc(Cl)c(F)c(Cl)c2F)C(F)(F)F)cc2cc(C(=O)NC3(C#N)CC3)c(Cl)nc21 (stereo not drawn) [Compound 80] :: 3.99
2. CCn1c(C(=O)NC(c2cccc(C(F)(F)F)c2)C(F)(F)F)cc2cc(C(=O)Nc3ccc(Cl)cn3)c(Cl)nc21 (stereo not drawn) [Compound 40] :: 4.88
3. C#CCn1c(C(=O)NC(c2cccc(C(F)(F)F)c2)C(F)(F)F)cc2cc(C(=O)NC3CCC3)c(Cl)nc21 (stereo not drawn) [Compound 25] :: 3.79
4. CCn1c(C(=O)NC(c2cccc(C(F)(F)F)c2)C(F)(F)F)cc2cc(CNC(=O)C3CC3)c(C)nc21 (stereo not drawn) [Compound 92] :: 3.59
5. C#CCn1c(C(=O)NC(c2cccc(C(F)(F)F)c2)C(F)(F)F)cc2cc(C(=O)NC(C)C)c(Cl)nc21 (stereo not drawn) [Compound 24] :: 3.68
6. CCC(=O)NCc1cc2cc(C(=O)NC(c3cccc(C(F)(F)F)c3)C(F)(F)F)n(CC)c2nc1C (stereo not drawn) [Compound 93] :: 3.45
7. CCn1c(C(=O)NC(c2ccc(F)c(Cl)c2)C(F)(F)F)cc2cc(C(=O)NCc3ccccn3)c(Cl)nc21 (stereo not drawn) [Compound 58] :: 3.17
8. CCn1c(C(=O)NC(c2ccc(Cl)c(C(F)(F)F)c2)C(F)(F)F)cc2cc(C(=O)NC3(C#N)CC3)c(C)nc21 (stereo not drawn) [Compound 90] :: 3.91

Ask | Record request: log p value, item CCn1c(C(=O)NC(c2cccc(C(F)(F)F)c2)C(F)(F)F)cc2cc(C(=O)NCC3CC3)c(Cl)nc21 (stereo not drawn) [Compound 57]
Reply | 4.06

Ask | Same question for CCn1c(C(=O)NC(c2ccc(Cl)c(C(F)(F)F)c2)C(F)(F)F)cc2cc(C(=O)NC3(C#N)CC3)c(Cl)nc21 (stereo not drawn) [Compound 83] please.
Reply | 4.02

Ask | Same question for CCn1c(C(=O)NC(c2cc(Cl)c(F)c(Cl)c2)C(F)(F)F)cc2cc(C(=O)NC3CC3)c(Cl)nc21 (stereo not drawn) [Compound 20] please.
Reply | 4.23

Ask | Same question for CCn1c(C(=O)NC(c2ccc(F)c(Cl)c2)C(F)(F)F)cc2cc(C(=O)NC3(C#N)CC3)c(C)nc21 (stereo not drawn) [Compound 10] please.
Reply | 3.51

Ask | Same question for CCn1c(C(=O)NC(c2cc(Cl)c(F)c(Cl)c2)C(F)(F)F)cc2cc(C(=O)NC3(C#N)CC3)c(C(F)(F)F)nc21 (stereo not drawn) [Compound 77] please.
Reply | 4.36
